Tested Target: human CD33 E81A (human, UniProt P20138 18-364)
Sequence (P20138 18-364 E81A limits assumed): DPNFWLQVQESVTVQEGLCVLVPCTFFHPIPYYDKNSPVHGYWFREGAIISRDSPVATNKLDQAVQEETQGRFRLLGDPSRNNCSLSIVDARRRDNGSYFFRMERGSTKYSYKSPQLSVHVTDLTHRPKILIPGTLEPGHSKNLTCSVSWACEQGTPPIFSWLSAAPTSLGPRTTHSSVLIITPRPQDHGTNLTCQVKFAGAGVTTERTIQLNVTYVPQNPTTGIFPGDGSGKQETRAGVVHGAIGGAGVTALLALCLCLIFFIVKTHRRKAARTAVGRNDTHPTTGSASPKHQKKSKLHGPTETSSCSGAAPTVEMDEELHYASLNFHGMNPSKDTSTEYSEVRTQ
Test: alanine scan, flow cytometry;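 note: HEK293-T cells transiently expressing single-residue alanine mutants of CD33 (alanine swapped to serine), antibody binding read by fluorescence in duplicate, background-subtracted, expressed relative to wild-type CD33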
Readout Type: Mean % WT Binding (% WT)
Value expressed in % WT; do not type the unit.

Consider the binder shown here: Refmab #1 (antibody, V domains shown, Full-length format is human IgG1 (Absolute Antibody Ab00283-10.0); The alanine scan used IgG or Fab; also called hP67.6) VH: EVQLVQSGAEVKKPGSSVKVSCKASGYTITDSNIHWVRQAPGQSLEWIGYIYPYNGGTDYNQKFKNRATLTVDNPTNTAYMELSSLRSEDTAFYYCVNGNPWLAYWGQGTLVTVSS VL: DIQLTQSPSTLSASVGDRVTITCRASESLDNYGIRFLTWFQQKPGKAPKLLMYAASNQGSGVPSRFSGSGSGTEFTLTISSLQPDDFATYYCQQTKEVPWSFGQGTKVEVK What is its recorded Mean % WT Binding? 83

Proceed to Refmab #2 (antibody, V domains shown, Full-length format is human IgG1 Fc silent (PG-LALA); The alanine scan used IgG or Fab) VH: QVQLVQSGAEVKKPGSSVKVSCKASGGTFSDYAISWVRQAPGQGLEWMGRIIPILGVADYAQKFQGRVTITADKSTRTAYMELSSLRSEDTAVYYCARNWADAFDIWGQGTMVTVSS VL: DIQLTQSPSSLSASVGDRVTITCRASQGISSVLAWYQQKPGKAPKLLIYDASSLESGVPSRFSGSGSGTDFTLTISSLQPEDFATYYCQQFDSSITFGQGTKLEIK 107

Proceed to Refmab #3 (antibody, V domains shown, Full-length format is human IgG1 Fc silent (PG-LALA); The alanine scan used IgG or Fab) VH: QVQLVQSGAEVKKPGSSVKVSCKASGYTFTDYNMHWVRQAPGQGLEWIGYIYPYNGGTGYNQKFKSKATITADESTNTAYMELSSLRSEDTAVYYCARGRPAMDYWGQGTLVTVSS VL: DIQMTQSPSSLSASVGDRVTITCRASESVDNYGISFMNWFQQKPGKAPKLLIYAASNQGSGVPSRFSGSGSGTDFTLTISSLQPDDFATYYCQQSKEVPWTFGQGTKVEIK 114

Proceed to Refmab #4 (antibody, V domains shown, Full-length format is human IgG1 Fc silent (PG-LALA); The alanine scan used IgG or Fab) VH: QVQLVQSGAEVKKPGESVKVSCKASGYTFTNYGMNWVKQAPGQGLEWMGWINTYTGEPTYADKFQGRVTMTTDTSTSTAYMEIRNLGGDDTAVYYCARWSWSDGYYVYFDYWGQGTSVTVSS VL: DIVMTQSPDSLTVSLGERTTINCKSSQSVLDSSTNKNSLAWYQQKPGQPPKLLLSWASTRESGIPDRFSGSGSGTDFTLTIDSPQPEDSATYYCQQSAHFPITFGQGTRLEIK 90.6

Data credit: patent US20260242735A1
